The origin of these recorded values is patent US11420947B2.

- Tested on: SiHa
- assay comment: CellTiter-Glo cell viability assay
- Assay type: cell-based
- particulars: Homo sapiens; SiHa, CERVICAL-SQUAMOUS CELL, 72 hours
Would you kindly list pIC50 for each of these compounds?
# pIC50 is unitless: minus log10 of the molar concentration; print number only

Data request: Could you share which pIC50 value was measured for CC[C@H](C(=O)Nc1ncc(C(=O)NO)s1)c1ccc(OC)cc1 ?
Data returned: 6.51

Data request: Could you share which pIC50 value was measured for CCC(C(=O)Nc1ncc(C(=O)NO)s1)c1ccc(OC)cc1 (racemic) ?
Data returned: 6.51

Data request: Could you share which pIC50 value was measured for CC[C@@H](C(=O)Nc1ncc(C(=O)NO)s1)c1ccc(OC)cc1 ?
Data returned: 5.56
